- Tested on: normal primary NK cells, pool 3 (3 donors) (IL-2 2.5 ng/mL)
- measurement-description: drug sensitivity score (DSS) (DSS units); higher = more sensitive; extreme values may be limits of the assay
- experimental-conditions: 72 h

>  <compound>
CCn1c(-c2nonc2N)nc2cnc(Oc3cccc(NC(=O)c4ccc(OCCN5CCOCC5)cc4)c3)cc21 (max concentration tested 10000 nM)

>  <drug sensitivity score>
5.91

$$$$
>  <compound>
COc1cc2c(NC3CCN(C(C)C)CC3)nc(C3CCCCC3)nc2cc1OCCCN1CCCC1 [UNC0638] (max concentration tested 10000 nM)

>  <drug sensitivity score>
5.3

$$$$
>  <compound>
C#Cc1cccc(Nc2ncnc3cc4c(cc23)OCCOCCOCCO4)c1 [Icotinib] (max concentration tested 10000 nM)

>  <drug sensitivity score>
0

$$$$
